# Target of assay: UniProtKB P09958
# Experiment notes: Inhibition of recombinant soluble human furin using pyroGlu-Arg-Thr-Lys-Arg-methyl-coumaryl-7-amide as substrate measured after 1 hr
pKi: −log10 of the molar value.

>  <Smiles representation>
CC(=O)N[C@@H](C)C(=O)N[C@@H](C)C(=O)N[C@@H](CCCNC(=N)N)C(=O)N[C@@H](CCCNC(=N)N)C(=O)N[C@@H](CCCNC(=N)N)C(=O)N[C@@H](CCCCN)C(=O)N[C@@H](CCCCN)C(=O)N[C@@H](CCCNC(=N)N)C(=O)N[C@H](C(N)=O)[C@@H](C)O

>  <pKi>
7.96

$$$$
>  <Smiles representation>
CC(=O)N[C@@H](Cc1c[nH]cn1)C(=O)N[C@@H](C)C(=O)N[C@@H](CCCNC(=N)N)C(=O)N[C@@H](CCCNC(=N)N)C(=O)N[C@@H](CCCNC(=N)N)C(=O)N[C@@H](CCCCN)C(=O)N[C@@H](CCCCN)C(=O)N[C@@H](CCCNC(=N)N)C(=O)N[C@H](C(N)=O)[C@@H](C)O

>  <pKi>
7.92

$$$$

###

# Experiment notes: Half life in CD1 mouse plasma by LC-MS/MS analysis
# Assay type: ADME, cell-free
# Condition notes: CD1, mouse
Where a SMILES comes first, the peptide text is derived from it.

>  <Molecule>
CC(=O)N[C@@H](CCCNC(=N)N)C(=O)N[C@@H](C)C(=O)N[C@@H](Cc1ccccc1)C(=O)N[C@@H](CCCNC(=N)N)C(=O)N[C@@H](CCCNC(=N)N)C(=O)N[C@@H](CCCCN)C(=O)N[C@@H](CCCCN)C(=O)N[C@@H](CCCNC(=N)N)C(=O)N[C@H](C(N)=O)[C@@H](C)O

>  <half-life (s)>
12.6

$$$$
>  <Molecule>
CC(=O)N[C@@H](Cc1ccccc1)C(=O)N[C@@H](C)C(=O)N[C@@H](CCCNC(=N)N)C(=O)N[C@@H](CCCNC(=N)N)C(=O)N[C@@H](CCCNC(=N)N)C(=O)N[C@@H](CCCCN)C(=O)N[C@@H](CCCCN)C(=O)N[C@@H](CCCNC(=N)N)C(=O)N[C@H](C(N)=O)[C@@H](C)O

>  <half-life (s)>
33.6

$$$$
>  <Molecule>
CC[C@H](C)[C@H](NC(=O)[C@H](CCCNC(=N)N)NC(=O)[C@H](C)NC(=O)[C@@H]1CCCN1C(C)=O)C(=O)N[C@@H](CCCNC(=N)N)C(=O)N[C@@H](CCCCN)C(=O)N[C@@H](CCCCN)C(=O)N[C@@H](CCCNC(=N)N)C(=O)N[C@H](C(N)=O)[C@@H](C)O (Ac-PARIRKKRT-NH2)

>  <half-life (s)>
44.4

$$$$

###

Reported values of Ki for individual entries
# Target of assay: Furin (Homo sapiens, UniProt P09958)
# Sequence (P09958 whole entry): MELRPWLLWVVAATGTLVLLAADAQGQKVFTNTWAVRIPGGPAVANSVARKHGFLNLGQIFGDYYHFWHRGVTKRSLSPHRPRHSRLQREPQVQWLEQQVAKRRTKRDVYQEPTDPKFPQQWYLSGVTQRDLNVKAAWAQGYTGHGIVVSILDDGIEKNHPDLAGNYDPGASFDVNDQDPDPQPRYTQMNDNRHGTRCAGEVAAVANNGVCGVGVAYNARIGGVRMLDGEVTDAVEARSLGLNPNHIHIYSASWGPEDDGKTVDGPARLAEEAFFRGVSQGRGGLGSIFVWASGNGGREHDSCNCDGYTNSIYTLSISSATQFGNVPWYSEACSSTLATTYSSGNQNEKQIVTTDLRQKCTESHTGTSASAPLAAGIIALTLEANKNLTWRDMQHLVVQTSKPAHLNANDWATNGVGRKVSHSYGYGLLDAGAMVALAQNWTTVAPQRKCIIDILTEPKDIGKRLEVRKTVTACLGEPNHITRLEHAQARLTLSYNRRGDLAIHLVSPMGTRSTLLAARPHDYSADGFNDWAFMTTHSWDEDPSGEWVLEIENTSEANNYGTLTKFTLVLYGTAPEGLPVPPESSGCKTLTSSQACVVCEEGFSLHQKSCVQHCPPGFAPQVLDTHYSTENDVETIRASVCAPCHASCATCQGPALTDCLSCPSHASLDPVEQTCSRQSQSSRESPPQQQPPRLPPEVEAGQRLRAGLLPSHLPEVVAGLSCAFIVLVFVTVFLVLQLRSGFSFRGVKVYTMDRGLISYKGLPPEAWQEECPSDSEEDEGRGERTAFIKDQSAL
# Experiment notes: Inhibition of recombinant soluble human furin using pyroGlu-Arg-Thr-Lys-Arg-methyl-coumaryl-7-amide as substrate measured after 1 hr
Measured quantity: Ki

>  <Smiles representation>
CC(=O)N[C@@H](CCCNC(=N)N)C(=O)N[C@@H](C)C(=O)N[C@@H](CCCNC(=N)N)C(=O)N[C@@H](CCCNC(=N)N)C(=O)N[C@@H](CCCNC(=N)N)C(=O)N[C@@H](CCCCN)C(=O)N[C@@H](CCCCN)C(=O)N[C@@H](CCCNC(=N)N)C(=O)N[C@H](C(N)=O)[C@@H](C)O

>  <Result>
15 nM

$$$$
>  <Smiles representation>
CC(=O)N[C@@H](CCC(=O)O)C(=O)N[C@@H](C)C(=O)N[C@@H](CCCNC(=N)N)C(=O)N[C@@H](CCCNC(=N)N)C(=O)N[C@@H](CCCNC(=N)N)C(=O)N[C@@H](CCCCN)C(=O)N[C@@H](CCCCN)C(=O)N[C@@H](CCCNC(=N)N)C(=O)N[C@H](C(N)=O)[C@@H](C)O

>  <Result>
11 nM

$$$$
>  <Smiles representation>
CC(=O)N[C@@H](CCCNC(=N)N)C(=O)N[C@@H](C)C(=O)N[C@@H](CCCNC(=N)N)C(=O)N[C@H](C(=O)N[C@@H](CCCNC(=N)N)C(=O)N[C@@H](CCCCN)C(=O)N[C@@H](CCCCN)C(=O)N[C@@H](CCCNC(=N)N)C(=O)N[C@H](C(N)=O)[C@@H](C)O)C(C)(C)C

>  <Result>
16 nM

$$$$
>  <Smiles representation>
CC(=O)N[C@H](C(=O)N[C@@H](C)C(=O)N[C@@H](CCCNC(=N)N)C(=O)N[C@@H](CCCNC(=N)N)C(=O)N[C@@H](CCCNC(=N)N)C(=O)N[C@@H](CCCCN)C(=O)N[C@@H](CCCCN)C(=O)N[C@@H](CCCNC(=N)N)C(=O)N[C@H](C(N)=O)[C@@H](C)O)[C@@H](C)O

>  <Result>
10 nM

$$$$
>  <Smiles representation>
CC(=O)N[C@@H](CCCNC(=N)N)C(=O)N[C@@H](C)C(=O)N[C@@H](CCCNC(=N)N)C(=O)NC1(C(=O)N[C@@H](CCCNC(=N)N)C(=O)N[C@@H](CCCCN)C(=O)N[C@@H](CCCCN)C(=O)N[C@@H](CCCNC(=N)N)C(=O)N[C@H](C(N)=O)[C@@H](C)O)CCCC1

>  <Result>
50 nM

$$$$
>  <Smiles representation>
CC(=O)N[C@@H](CCCNC(=N)N)C(=O)N[C@@H](C)C(=O)N[C@@H](CCC(=O)O)C(=O)N[C@@H](CCCNC(=N)N)C(=O)N[C@@H](CCCNC(=N)N)C(=O)N[C@@H](CCCCN)C(=O)N[C@@H](CCCCN)C(=O)N[C@@H](CCCNC(=N)N)C(=O)N[C@H](C(N)=O)[C@@H](C)O

>  <Result>
140 nM

$$$$
>  <Smiles representation>
CC[C@H](C)[C@@H](NC(=O)[C@H](CCCNC(=N)N)NC(=O)[C@H](C)NC(=O)[C@H](CCCNC(=N)N)NC(C)=O)C(=O)N[C@@H](CCCNC(=N)N)C(=O)N[C@@H](CCCCN)C(=O)N[C@@H](CCCCN)C(=O)N[C@@H](CCCNC(=N)N)C(=O)N[C@H](C(N)=O)[C@@H](C)O

>  <Result>
240 nM

$$$$

###

# Experiment notes: Stability of the compound in CD1 mouse plasma assessed as intact compound remaining measured after 2 mins by LC-MS/MS analysis
# Assay type: ADME, cell-free
# Condition notes: read-out: Stabilty
Where a SMILES comes first, the peptide text is derived from it.

>  <Compound>
CC[C@H](C)[C@H](NC(=O)[C@H](CCCNC(=N)N)NC(=O)[C@H](C)NC(=O)[C@@H]1CCCN1C(C)=O)C(=O)N[C@@H](CCCNC(=N)N)C(=O)N[C@@H](CCCCN)C(=O)N[C@@H](CCCCN)C(=O)N[C@@H](CCCNC(=N)N)C(=O)N[C@H](C(N)=O)[C@@H](C)O (Ac-PARIRKKRT-NH2)

>  <remaining at 2 min>
15%

$$$$
>  <Compound>
CC[C@H](NC(=O)[C@H](CCCNC(=N)N)NC(=O)[C@H](C)NC(=O)[C@H]1CCCN1C(C)=O)C(=O)N[C@@H](CCCNC(=N)N)C(=O)N[C@@H](CCCCN)C(=O)N[C@@H](CCCCN)C(=O)N[C@@H](CCCNC(=N)N)C(=O)N[C@H](C(N)=O)[C@@H](C)O

>  <remaining at 2 min>
25%

$$$$

###

# Target of assay: Furin (Homo sapiens)
# Experiment notes: Inhibition of recombinant soluble human furin using pyroGlu-Arg-Thr-Lys-Arg-methyl-coumaryl-7-amide as substrate measured after 1 hr
Measured quantity: Ki (nM)

>  <Smiles representation>
CC(=O)N[C@@H](CCCNC(=N)N)C(=O)N[C@@H](C)C(=O)N[C@@H](CCCNC(=N)N)C(=O)N[C@@H](CCC(N)=O)C(=O)N[C@@H](CCCNC(=N)N)C(=O)N[C@@H](CCCCN)C(=O)N[C@@H](CCCCN)C(=O)N[C@@H](CCCNC(=N)N)C(=O)N[C@H](C(N)=O)[C@@H](C)O

>  <Measured quantity>
Ki

>  <Unit spec>
nM

>  <Recorded number>
19

$$$$
>  <Smiles representation>
CC[C@H](NC(=O)[C@H](CCCNC(=N)N)NC(=O)[C@H](C)NC(=O)[C@H]1CCCN1C(C)=O)C(=O)N[C@@H](CCCNC(=N)N)C(=O)N[C@@H](CCCCN)C(=O)N[C@@H](CCCCN)C(=O)N[C@@H](CCCNC(=N)N)C(=O)N[C@H](C(N)=O)[C@@H](C)O

>  <Measured quantity>
Ki

>  <Unit spec>
nM

>  <Recorded number>
11

$$$$
>  <Smiles representation>
CC(=O)N[C@@H](CCCNC(=N)N)C(=O)N[C@@H](C)C(=O)N[C@@H](C)C(=O)N[C@@H](CCCNC(=N)N)C(=O)N[C@@H](CCCNC(=N)N)C(=O)N[C@@H](CCCCN)C(=O)N[C@@H](CCCCN)C(=O)N[C@@H](CCCNC(=N)N)C(=O)N[C@H](C(N)=O)[C@@H](C)O

>  <Measured quantity>
Ki

>  <Unit spec>
nM

>  <Recorded number>
23

$$$$
>  <Smiles representation>
CC[C@H](C)[C@H](NC(C)=O)C(=O)N[C@@H](C)C(=O)N[C@@H](CCCNC(=N)N)C(=O)N[C@@H](CCCNC(=N)N)C(=O)N[C@@H](CCCNC(=N)N)C(=O)N[C@@H](CCCCN)C(=O)N[C@@H](CCCCN)C(=O)N[C@@H](CCCNC(=N)N)C(=O)N[C@H](C(N)=O)[C@@H](C)O

>  <Measured quantity>
Ki

>  <Unit spec>
nM

>  <Recorded number>
11

$$$$
